molecular target: E. coli DdlB enzyme (D-alanine:D-alanine ligase) (Escherichia coli); construct: made in house; host or cells: E. coli; assay: biochemical; conditions: residual activity; tested concentration 1.9 mM; read-out: DdlB RA
# note: exactly 80% is not below, so it is NOT MET; use MET for remaining activity at 1900 µM strictly under it

Cc1nn(C(F)F)cc1S(=O)(=O)N1CCC(C)CC1 [Compound Y501-4822] ... NOT MET
CCn1c(C(=O)N2CCC(C(=O)O)CC2)cc2occc21 [FF01-0413] ... NOT MET
CNC(=O)C1CCCN(S(=O)(=O)c2cccs2)C1 (centres unmarked) [Compound D356-2306] ... NOT MET
Cc1nc(O)[nH]c(=O)c1S(=O)(=O)NC(C)(C)C [Compound D668-0207] ... NOT MET
OC1CCCc2c1[nH]c1ccc(Br)cc21 (centres unmarked) [Compound 8010-6263] ... MET

Exercise: Regarding O=C(O)c1ccccc1NCc1ccccc1Cl [Compound K783-0963] , kindly confirm whether its remaining activity at 1900 µM is beneath 80%.
Key: NOT MET

Exercise: Regarding CN1CCN(C(=O)Nc2ccccc2C(=O)O)CC1 [Compound Y043-2499] , kindly confirm whether its remaining activity at 1900 µM is beneath 80%.
Key: NOT MET

Exercise: Regarding O=C1CS(=O)(=O)C2(CCNCC2)N1c1ccccc1 [Compound T140-0972] , kindly confirm whether its remaining activity at 1900 µM is beneath 80%.
Key: NOT MET

Exercise: Regarding Cc1nnc(C2CCN(C(=O)c3ccco3)CC2)[nH]1 [Compound T630-1922] , kindly confirm whether its remaining activity at 1900 µM is beneath 80%.
Key: MET
